# Tested on: RNA polymerase II Serine 5 phosphorylation in A549 cells overexpressing CDK7 mutant (C312S)
# test.description: Imaging-based cellular RNA PolII Ser5 phosphorylation assay in A549 cells overexpressing CDK7-mutant (C312S)
# Assay type: cell-based, human
# run.conditions: Homo sapiens, A549, A549 cells overexpressing CDK7 mutant (C312S); read-out: CDK7_ A549 mutant hCDK7(pIC50) (converted)
metric: IC50

Sample answers from the record:
{"molecule": "C=CC(=O)N1CC[C@@H](N2CC(c3cc(C)c4c(c3)Nc3ncnc(N5CCS(=O)(=O)CC5)c3[C@H](C)O4)C2)C1 (single isomer, unassigned)", "IC50": "> 10 µM"}
{"molecule": "C=CC(=O)N1CC(N2CCC(c3cc(C)c4c(c3)Nc3ncnc(N5CCOC6(COC6)C5)c3CO4)CC2)C1", "IC50": "> 10 µM"}

Exam item: What does the record list as IC50 for C=CC(=O)N1CC(N2CCC(c3ccc4c(c3)Nc3ncnc(N5CCOCC5)c3[C@@H](CC)O4)CC2)C1 (single isomer, unassigned) ?
Marked response: > 10 µM
